Below: a set of entries, each annotated with reported Kd.
# experimentalTarget: human full-length VWF (human, UniProt P04275 764-2813)
# assayProcedure: SPR, Biacore T200, antibody captured on Protein A, full-length VWF as analyte, single-cycle kinetics
Put down the number, then write its unit next to it.

Please review the entries below; each comes with its answer.
binder | value
4-H3_H7_L0 rep (antibody, human IgG1, kappa, V domains shown, humanised, human IgG1 kappa) VH: QVQLVESGGGVVQPGRSLRLSCAASGIDLTSNAMNWVRQAPGKGLEWIGGIYGHDTSYYAAWAKGRFTISRDNSKNTVYLQMNSLRAEDTATYFCARGFIYFDIWGQGTLVTVSS VL: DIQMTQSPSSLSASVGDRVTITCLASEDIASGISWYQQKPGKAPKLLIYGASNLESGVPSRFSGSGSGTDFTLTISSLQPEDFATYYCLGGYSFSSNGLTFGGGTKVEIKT | 1.61 pM
1-A2_H1_L1 (antibody, human IgG1, kappa, V domains shown, humanised, human IgG1 kappa) VH: QVQLVESGGGVVQPGRSLRLSCAASGIDLTSNAMNWVRQAPGKGLEWVAGIYGHDTSYYAAWAKGRFTISRDNSKNTLYLQMNSLRAEDTAVYYCARGFIYFDIWGQGTLVTVSS VL: DIQMTQSPSSLSASVGDRVTITCLASEDIYSGISWYQQKPGKAPKLLIYGASNLESGVPSRFSGSGSGTDYTLTISSLQPEDFATYYCLGGHSHSTTDLTFGGGTKVEIKT | 5.89 pM
1-A2_H0_L1 (antibody, human IgG1, kappa, V domains shown, humanised, human IgG1 kappa) VH: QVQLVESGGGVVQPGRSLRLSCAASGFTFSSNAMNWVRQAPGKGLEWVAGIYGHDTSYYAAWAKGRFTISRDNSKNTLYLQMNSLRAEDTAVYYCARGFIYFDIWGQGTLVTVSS VL: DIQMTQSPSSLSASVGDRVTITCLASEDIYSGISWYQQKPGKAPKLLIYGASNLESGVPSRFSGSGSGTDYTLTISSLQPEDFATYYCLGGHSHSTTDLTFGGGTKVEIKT | 43.2 pM
1-A2_VH-par_L1 (antibody, human IgG1, kappa, V domains shown, also called 1-A2_L1 (hIgG1K)) VH: SQSVEESGGRLVPPGTPLTLTCTVSGIDLTSNAMNWVRQAPGKGLEWIGGIYGHDTSYYAAWAKGRFTISRTSTTVDLKMTRPTTDDTATYFCARGFIYFDIWGTGTLVTISS VL: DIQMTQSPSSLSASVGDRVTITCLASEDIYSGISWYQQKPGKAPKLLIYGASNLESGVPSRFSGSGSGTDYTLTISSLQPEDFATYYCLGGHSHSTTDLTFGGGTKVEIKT | 7.07 pM

Consider 4-H3 (antibody, human IgG1, V domains shown, Rabbit-derived variable domains expressed as human IgG1; also called clone 4-H3) VH: QSLEESGGRLVPPGTPLTLTCTVSGIDLTSNAMNWVRQAPGKGLEWIGGIYGHDTSYYAAWAKGRFTISRTSTTVDLKMTRPTTDDTATYFCARGFIYFDIWGTGTLVTISS VL: AYDMTQTPPSLSASVGETVRIRCLASEDIASGISWYQQKPGKPPTLLIYGASNLESGVPPRFSGSGSGTDYTLTIGGVQAEDAATYYCLGGYSFSSNGLTFGAGTKVEIK . Its measured Kd is 15.3 pM
